- tgt: Circumsporozoite protein (CSP) (Plasmodium falciparum (isolate 3D7), UniProt Q7K740)
- Sequence (Q7K740 19-374): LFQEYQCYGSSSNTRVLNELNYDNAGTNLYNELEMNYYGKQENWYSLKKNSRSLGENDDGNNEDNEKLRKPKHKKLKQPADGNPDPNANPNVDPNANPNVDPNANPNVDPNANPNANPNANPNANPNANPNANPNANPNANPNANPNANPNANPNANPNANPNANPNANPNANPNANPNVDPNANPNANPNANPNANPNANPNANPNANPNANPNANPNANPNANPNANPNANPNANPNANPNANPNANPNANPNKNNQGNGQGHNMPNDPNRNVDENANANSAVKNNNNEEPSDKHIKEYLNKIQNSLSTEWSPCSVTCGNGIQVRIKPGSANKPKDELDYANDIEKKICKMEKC
- test_description: AVEXIS screen signal:noise (double-corrected)
Would you kindly list binding score for each of these binders?
Numbers only.

Dear reader, for each entry below, please note its binding score.
1. ADP155 (protein, bait human Fc-tagged dimer) MAPARLFALLLFFVGGVAESIRETEVIDPQDLLEGRYFSGALPDDEDVVGPGQESDDFELSGSGDLDDLEDSMIGPEVVHPLVPLDNHIPERAGSGSQVPTEPKKLEENEVIPKRISPVEESEDVSNKVSMSSTVQGSNIFERTEV
2. ADP365 (protein, bait human Fc-tagged dimer) MALGSPGLLFLLFSSLRADTQEKEVRAMVGSDVELSCACPEGSRFDLNDVYVYWQTSESKTVVTYHIPQNSSLENVDSRYRNRALMSPAGMLRGDFSLRLFNVTPQDEQKFHCLVLSQSLGFQEVLSVEVTLHVAANFSVPVVSAPHSPSQDELTFTCTSINGYPRPNVYWINKTDNSLLDQALQNDTVFLNMRGLYDVVSVLRIARTPSVNIGCCIENVLLQQNLTVGSQTGNDIGERDKITENPVSTG

**Result**
1: 0.582; 2: 2.12

# credit: paper PMC11098746
